assay: in vivo; conditions: male, Wistar, rat, plasma, po, 15 mg/kg
endpoint: MRT

Value lookup for MRT; key = Nc1nc(=O)n([C@@H]2CS[C@H](CO)O2)cc1F [Emtricitabine]
12 h

---

Assay: in vivo
Settings: male, Wistar, rat, plasma, po, 15 mg/kg
Description: The pharmacokinetic studies were carried out in healthy male Wistar rats (250–300 g). The animals were fasted overnight before dosing with free access to water. […] The supernatant was decanted into a China dish and evaporated to dryness at room temperature. […] Emtricitabine was detected at a wavelength of 280 nm. […]
endpoint: Cmax (ng/mL)
Give the value, in units of ng/mL, as a plain number.

Tell me the measured Cmax of Nc1nc(=O)n([C@@H]2CS[C@H](CO)O2)cc1F , please.
1700
